Data provenance is PubChem BioAssay.

Below is a list of entries, each paired with its recorded z-score value.
assayRemarks: CREB reporter modulators under forskolin, primary screen, cell-based, PC12, CRE-LacZ reporter, forskolin-stimulated (AID 1146);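 further: PC12 cells with 6xCRE LacZ reporter stimulated by forskolin 10 µM; beta-galactosidase reporter signal reflecting CREB driven transcription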
testConditions: luminescence, 4.5 h, higher = more signal, called active from +8 up or from −8 down
Could you respond with only the numeric value?

compound	z-score
COC(=O)[C@@]1(Cc2ccccc2)[C@H]2c3cc(C(=O)N(C)C)n(Cc4nc5ccccc5[nH]4)c3C[C@H]2CN1C(=O)c1ccccc1	-0.0536
COC(=O)c1ccc(OC)c(/C=C\CC(OC(=O)c2ccncc2)c2ccccc2)c1 (centres undefined)	-1.88
CCOC(=O)C[C@H]1[C@H](OC(=O)Cc2ccc3c(c2)OCO3)[C@@H](NC(=O)CC(C)C)c2cc(OCCCO)ccc2N1C(=O)c1ccc2ccccc2n1	0.812

Let's switch to this compound now.
In plain terms, `COCCOC(=O)N1C(=O)[C@@]2(c3cc(C#CCC(C(=O)OC)C(=O)OC)ccc31)[C@H](C(N)=O)[C@H]1C(=O)O[C@H](c3ccccc3)[C@H](c3ccccc3)N1[C@@H]2c1ccccc1OCCO` has a documented z-score of -2.42

====

targetOrTestSystem: Epidermal growth factor receptor (Homo sapiens) (UniProt P00533)
Sequence (P00533 whole entry, looked up): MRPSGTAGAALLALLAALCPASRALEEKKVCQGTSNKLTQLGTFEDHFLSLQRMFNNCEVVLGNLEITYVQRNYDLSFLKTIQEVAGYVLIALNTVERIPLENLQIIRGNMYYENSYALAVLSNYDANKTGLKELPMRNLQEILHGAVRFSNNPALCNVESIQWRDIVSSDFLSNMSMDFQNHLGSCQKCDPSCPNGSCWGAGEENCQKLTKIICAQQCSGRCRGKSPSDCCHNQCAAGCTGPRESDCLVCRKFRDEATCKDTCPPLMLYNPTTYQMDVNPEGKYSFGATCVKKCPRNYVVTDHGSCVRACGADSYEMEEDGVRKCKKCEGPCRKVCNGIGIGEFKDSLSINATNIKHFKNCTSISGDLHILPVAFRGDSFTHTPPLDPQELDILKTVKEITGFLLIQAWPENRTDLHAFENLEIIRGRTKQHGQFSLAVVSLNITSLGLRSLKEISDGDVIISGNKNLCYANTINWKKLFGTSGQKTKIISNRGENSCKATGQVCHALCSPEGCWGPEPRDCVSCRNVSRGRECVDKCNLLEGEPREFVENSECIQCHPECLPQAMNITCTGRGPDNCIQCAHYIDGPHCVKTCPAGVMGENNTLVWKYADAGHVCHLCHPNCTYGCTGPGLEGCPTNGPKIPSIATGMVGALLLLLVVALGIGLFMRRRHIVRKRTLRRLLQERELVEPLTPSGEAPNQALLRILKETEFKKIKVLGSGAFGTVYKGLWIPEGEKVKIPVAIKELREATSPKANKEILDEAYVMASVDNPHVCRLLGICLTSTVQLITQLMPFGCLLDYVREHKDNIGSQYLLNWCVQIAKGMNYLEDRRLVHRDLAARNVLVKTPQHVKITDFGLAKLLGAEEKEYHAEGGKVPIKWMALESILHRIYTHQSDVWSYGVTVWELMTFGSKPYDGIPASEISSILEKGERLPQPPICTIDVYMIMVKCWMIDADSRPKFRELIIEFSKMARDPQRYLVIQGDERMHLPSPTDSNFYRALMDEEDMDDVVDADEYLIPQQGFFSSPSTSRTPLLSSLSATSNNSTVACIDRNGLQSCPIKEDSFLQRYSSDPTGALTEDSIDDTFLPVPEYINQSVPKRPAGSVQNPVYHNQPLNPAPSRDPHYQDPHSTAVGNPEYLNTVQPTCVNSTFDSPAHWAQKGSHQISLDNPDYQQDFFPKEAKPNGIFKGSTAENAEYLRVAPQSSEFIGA
assayRemarks: EGFR binders on small-molecule microarrays, primary screen, biochemical, small-molecule microarray, 635 nm fluorescence (AID 1104);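 further: score merges 667 nm emission intensity with spot signal to noise over triplicate slides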
testConditions: EGFR binding, higher = more signal
property: composite z-score

Completed entries (count: 5):
compound	composite z-score
COc1c(C)cc(-c2cc3c(c(CCc4ccccc4)n2)[Si](C(C)C)(C(C)C)O[C@H]3c2ccccc2)cc1C	-0.275
[N-]=[N+]=NCc1ccccc1[C@H]1OC(c2ccc(OCCCO)cc2)=N[C@@]1(Cc1ccccc1N=[N+]=[N-])C(N)=O	0.32
[N-]=[N+]=NCc1ccccc1C[C@]1(C(=O)N2CCCCC2)COC(c2ccc(OCCCO)cc2)=N1	1.1
COCCOC(=O)N1C(=O)[C@@]2(c3cc(C#CC4=CCCCC4)ccc31)[C@H](c1ccc(O)cc1)N1[C@H](c3ccccc3)[C@H](c3ccccc3)OC(=O)[C@H]1[C@@H]2C(=O)N1CCc2cc(OC)c(OC)cc2C1	0.0275
CN1C2C=C(c3ccc(CO)cc3)C(C3C(=O)N(C(N)=O)C(=O)C32)C1C1CC1 (stereo unspecified)	-0.127

In plain terms, `CCCNC(=O)[C@@]1(Sc2ccc(C)cc2)CC(=O)N(Cc2cc(C(F)(F)F)cc(C(F)(F)F)c2)[C@@H]1c1ccc(CO)cc1` has a documented composite z-score of -0.738

In plain terms, `C=C(COC)/C(=C/C[C@@H](OC(C)=O)c1cccc(OCCO)c1)c1cnc2ccccc2c1` has a documented composite z-score of 1.26

In plain terms, `CCCN1C(=O)[C@@]2(c3ccc([N+](=O)[O-])cc3)CC(=O)N(C3CCCCC3)[C@@H]2c2ccc(CO)cc21` has a documented composite z-score of 0.121

In plain terms, `CCOC(=O)C1=C[C@@H](C(C)(C)C)N(S(=O)(=O)c2ccc(C)cc2)[C@H]1c1ccc(OC)cc1` has a documented composite z-score of 0.902

In plain terms, `C=CCNC(=O)[C@H]1[C@@H]2C(=O)O[C@@H](c3ccccc3)[C@@H](c3ccccc3)N2[C@@H](c2ccc(O)cc2)[C@]12C(=O)Nc1ccccc12` has a documented composite z-score of -0.705

In plain terms, `CCCC=C(CCC)[C@@H](NC(=O)c1ccc(C(=O)OC)cc1)c1ccc(C(=O)OC)cc1` has a documented composite z-score of -0.195

In plain terms, `C=CCNC(=O)[C@@H]1[C@H]2C(=O)O[C@H](c3ccccc3)[C@H](c3ccccc3)N2[C@H](c2ccc(OCCO)cc2)[C@@]12C(=O)Nc1ccc(C#CC3=CCCCC3)cc12` has a documented composite z-score of 0.39
